System: Leptosphaeria nodorum
run-description: Leptosphaeria nodorum test (wheat)/protective
Format: in vivo
experimental-setup: protective, application rate 25 g/ha, evaluation 10 days after inoculation
Quick list: Efficacy in % per entry.
value-kind: Efficacy in % (%)

INSERT INTO measurements (compound, experimental_system, value_kind, unit_tag, experimental_result) VALUES
  ('CC(C)(C)C(O)(CCc1ccc(Cl)cc1)Cn1cncn1 (stereo not shown) [tebuconazole (IV) (3), tebuconazole]', 'Leptosphaeria nodorum', 'Efficacy in %', '%', 50),
  ('CO/N=C(/C1=NOCCO1)c1ccccc1Oc1ncnc(Oc2ccccc2Cl)c1F [Compound of the formula (LXXII) (71)]', 'Leptosphaeria nodorum', 'Efficacy in %', '%', 40),
  ('Cc1noc(C)c1S(=O)(=O)n1c(Cl)nc2cc3c(cc21)OC(F)(F)O3 [Compound of the formula (LXXI) (70)]', 'Leptosphaeria nodorum', 'Efficacy in %', '%', 0),
  ('CNC(=O)/C(=N/OC)c1ccccc1Oc1ncnc(Oc2cccc(Cl)c2C)c1F [Compound of the formula (I)]', 'Leptosphaeria nodorum', 'Efficacy in %', '%', 60);

----------
System: Phytophthora infestans
run-description: whole plant or invertebrate
Assay type: in vivo
experimental-setup: Phytophthora infestans, in Solanum lycopersicum, 72 h, read-out: % Efficacy
value-kind: pest or weed control at 10 g/ha (%)

INSERT INTO measurements (compound, value_kind, experimental_result) VALUES
  ('O=C(Nc1ccccc1)N(Cc1ccc(Cl)cc1)C1CCCC1 [pencycuron (XXXVIII) (37), pencycuron]', 'pest or weed control at 10 g/ha', 14),
  ('CCCN(CC)CC1COC2(CCC(C(C)(C)C)CC2)O1 (stereo not shown) [spiroxamine (II) (1)]', 'pest or weed control at 10 g/ha', 0),
  ('Cc1cc(C)nc(Nc2ccccc2)n1 [pyrimethanil (XLIX)(48), pyrimethanil]', 'pest or weed control at 10 g/ha', 11),
  ('CCCN(CCOc1c(Cl)cc(Cl)cc1Cl)C(=O)n1ccnc1 [prochloraz (XXI) (20), prochloraz]', 'pest or weed control at 10 g/ha', 0);
